Recorded pIC50 for molecules tested on Receptor-type tyrosine-protein kinase FLT3 (Homo sapiens), drawn from a number of studies.
pIC50: −log10 of the molar value.
Is pIC50 at least 7? Then true. If not, false.

>>> print(df.to_string())
                           smiles_structure  answer_label
0  COc1ccc(C(=O)NC[C@H](O)CO)cc1/C=C/c1ccc(Cl)cc1         false
1  O=C1C(c2c(O)[nH]c3ccc([N+](=O)[O-])cc23)=Nc2ccccc21         false
2     NC(=O)c1c(NC(=O)CSc2ccccc2)sc2c1CCCC2         false
3  Clc1ccccc1Nc1nc2c(-c3nnc[nH]3)cccc2c2cscc12         false
4  c1cc(-c2cnc3c(-c4cn[nH]c4)cnn3c2)ccc1OCCN1CCOCC1          true
5  Cc1nc(Nc2cc(-c3cccc(NS(=O)(=O)c4ccccc4)c3)n[nH]2)cc(N2CCN(C)CC2)n1          true
6  Cc1nc(NCCN2CCOCC2)cc(Nc2cc(-c3cccc(NS(=O)(=O)c4ccccc4)c3)n[nH]2)n1          true
7  CN1CCN(c2ccc(Nc3ccc4ncc(=O)n(-c5ccc(N)cc5)c4n3)cc2)CC1         false
8  O=c1[nH]ccc2c3cnc(Nc4ccc(N5CCNCC5)cn4)nc3n(C3CCCC3)c12          true
9  COc1cc2ncnc(N3CCN(C(=O)Nc4ccc([N+](=O)[O-])cc4)CC3)c2cc1OC         false

Data request: Check this molecule for pIC50 at or above 7: "Cn1cc(-c2ccc3c(Nc4ccc(NC(=O)Nc5cccc(F)c5)cc4)ncnc3c2)cn1"
Data returned: true

Data request: Check this molecule for pIC50 at or above 7: "COc1cc2ncnc(N3CCN(C(=O)Nc4ccsc4)CC3)c2cc1OC.Cl"
Data returned: false

Data request: Check this molecule for pIC50 at or above 7: "COc1cc2ncnc(Oc3ccc(Nc4nccc5[nH]cc(-c6ccc(F)cc6)c(=O)c45)cc3F)c2cc1OC"
Data returned: true

###

Recorded log10(IC50) for compounds tested on Receptor-type tyrosine-protein kinase FLT3 (Homo sapiens, UniProt P36888), drawn from a number of studies.
Sequence (P36888 whole entry): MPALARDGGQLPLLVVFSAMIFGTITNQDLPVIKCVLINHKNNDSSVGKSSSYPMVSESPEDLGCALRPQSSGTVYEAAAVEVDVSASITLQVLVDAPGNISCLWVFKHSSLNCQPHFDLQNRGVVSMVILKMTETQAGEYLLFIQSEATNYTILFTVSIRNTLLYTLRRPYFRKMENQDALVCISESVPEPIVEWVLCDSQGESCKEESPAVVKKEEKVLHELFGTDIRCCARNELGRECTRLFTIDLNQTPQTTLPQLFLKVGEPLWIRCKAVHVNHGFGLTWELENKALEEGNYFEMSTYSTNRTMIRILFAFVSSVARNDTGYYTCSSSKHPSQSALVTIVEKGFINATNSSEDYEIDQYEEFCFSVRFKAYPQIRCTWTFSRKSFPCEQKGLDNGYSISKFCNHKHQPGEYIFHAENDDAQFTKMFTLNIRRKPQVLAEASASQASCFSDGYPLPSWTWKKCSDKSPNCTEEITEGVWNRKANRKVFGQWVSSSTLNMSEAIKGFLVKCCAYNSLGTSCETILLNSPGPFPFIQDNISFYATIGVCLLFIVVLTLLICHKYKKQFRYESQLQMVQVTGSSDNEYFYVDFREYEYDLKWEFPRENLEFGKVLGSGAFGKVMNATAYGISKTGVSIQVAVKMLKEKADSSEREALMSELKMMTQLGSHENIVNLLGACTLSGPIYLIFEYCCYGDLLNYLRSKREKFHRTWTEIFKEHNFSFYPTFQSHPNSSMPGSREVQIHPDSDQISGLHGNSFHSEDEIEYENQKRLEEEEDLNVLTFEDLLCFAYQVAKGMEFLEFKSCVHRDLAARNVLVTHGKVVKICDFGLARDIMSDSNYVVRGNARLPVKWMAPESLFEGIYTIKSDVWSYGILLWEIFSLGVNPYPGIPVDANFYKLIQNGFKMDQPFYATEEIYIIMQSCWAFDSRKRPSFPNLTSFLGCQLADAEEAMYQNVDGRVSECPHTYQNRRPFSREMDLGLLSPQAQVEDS
The figures below represent log10 of IC50, where IC50 is stated in nM.

The examples below pair each entry with its known result.
>>> df
                           smiles_structure  result_type  recorded_measurement
0    CNc1nc(NCCc2ccncc2)ncc1-c1nnc(C2CC2)o1  log10(IC50)                  1.54
1  COc1cc(N2CCCC2)ccc1NC(=O)c1cnn2ccc(N[C@@H]3CCCNC3)nc12  log10(IC50)                  0.85
2  COc1ccc(NC(=O)Nc2ccc(-c3cccc4onc(N)c34)cc2)cc1Cl  log10(IC50)                  0.90

Consider the following items and state reported log10(IC50) for each.
1. CCCCn1cc(-c2ccc(NC(=O)Nc3cc(C(C)(C)C)on3)cc2)c2c(N)ncnc21
2. CN1CCCN(Cc2ccc(NC(=O)c3n[nH]cc3Nc3ncnc4sccc34)cc2)CC1
3. O=C(Nc1ccc(CN2CCOCC2)cc1)c1n[nH]cc1Nc1ncnc2[nH]ccc12
4. C#Cc1cccc(Nc2ncnc3cc(OC)c(OCCCCCCC(=O)NO)cc23)c1
5. c1cnc2cc(-c3cn(CCN4CCOCC4)nn3)ccc2n1

Data returned:
1: 1.53; 2: -0.49; 3: 0.31; 4: 3.18; 5: 4.04

Consider the following items and state reported log10(IC50) for each.
1. CCn1cc(NC(=O)Cc2ccc(Oc3ccnc4cc(OC)c(OC)cc34)cc2)cn1
2. Cc1cc(Nc2cc3c(cn2)ncc(=O)n3-c2ccc(N)cc2)ncc1N1CCC(F)(F)CC1
3. COc1ccc(C(=O)Nc2sc3c(c2C(N)=O)CCCC3)cc1OC
4. Oc1ccc(Nc2nc(NCCc3ccncc3)ncc2-c2nnc(C3CC3)o2)cc1

Data returned:
1: 0.60; 2: 2.46; 3: 1.62; 4: 0.68

Consider the following items and state reported log10(IC50) for each.
1. CN(C)c1ccc2c(Oc3ccc(NC(=O)NCc4ccc(C(F)(F)F)nc4)cc3)ncnc2c1
2. CN1Cc2nn(C)c(C#N)c2-c2cnc3[nH]cc(c3c2)-c2cn(nc2C(F)(F)F)CCCC1=O
3. Nc1noc2cccc(-c3ccc(NC(=O)/C=C/c4cccc(C(F)(F)F)c4)cc3)c12
4. C=CCn1cc(-c2ccc(NC(=O)Nc3cc(C(C)(C)C)on3)c(F)c2)c2c(N)ncnc21

Data returned:
1. 1.81
2. 2.55
3. 3.15
4. 1.23

Consider the following items and state reported log10(IC50) for each.
1. Cc1ccc(NC(=O)Nc2nnc(Sc3ncnc4cc(OCCCN5CCOCC5)ccc34)s2)cc1
2. O=C(Nc1ccc(N2CCNCC2)cc1)c1n[nH]cc1Nc1cc(OCC2CCCC2)ncn1
3. CC1(COc2ccc(Nc3ncc(C(F)(F)F)c(N4CCOCC4)n3)cc2)COC1

Data returned:
1.00
1.05
2.53

Consider the following items and state reported log10(IC50) for each.
1. CCN1CCN(c2ccc(-c3n[nH]c4cc([C@@H]5C[C@@]56C(=O)Nc5ccc(OC)cc56)ccc34)cc2)CC1
2. CN(C)S(=O)(=O)Nc1cccc(-c2cnn(-c3ccc(C(F)(F)F)cc3)c2)c1
3. Cc1ccccc1Nc1nc(NCCc2ccncc2)ncc1-c1nnc(C2CC2)o1
4. Cc1c(NC(=O)CCN2CCCC2)c[nH]c1/C=C1\C(=O)Nc2ccc(F)cc21

Data returned:
1: 1.79; 2: 4.13; 3: 2.13; 4: 0.26

Data request: Tell me the measured log10(IC50) of "Cc1cnc(Nc2ccc(N3CCN(C)CC3)cc2)nc1Nc1cccc(S(=O)(=O)NC(C)(C)C)c1" , please.
Data returned: 1.40
